tested on: PC-3 prostate; experiment: NCI-60 one-dose screen, 48 h (100 = growth as untreated, 0 = no growth, -100 = all killed); conditions: 10 µM unless noted
Compounds without any hit were thinned out: in the full panel of roughly 83,000, 20% have a hit.
Kindly state growth for each of the entries shown.
State the answer as a number, implicitly in %.

Look up growth for this molecule: CCCCCCCCN(CCCCCCCC)C(=N)c1ccnc2ccccc12
-88.7

Look up growth for this molecule: C=C(C)[C@@H]1CC[C@]2(CO)CC[C@]3(C)[C@H](CC[C@@H]4[C@@]5(C)C=C(C#N)C(=O)C(C)(C)[C@@H]5CC[C@]43C)[C@@H]12
6.8

Look up growth for this molecule: Cc1csc(NC(=O)c2sc3nc(-c4cccs4)ccc3c2N)n1
82.6

Look up growth for this molecule: Cc1ccc(C)c2c1C(=O)OC2=O
97.7

Look up growth for this molecule: N#Cc1c(NC(=O)c2ccccc2I)sc2c1CCCC2
47.1

Look up growth for this molecule: COc1ccc(OC)c(/C=C2\COc3ccc(O)cc3C2=O)c1
95.2

Look up growth for this molecule: [2H]c1nc(Nc2ncc(F)c(-c3cc(F)c4nc(C)n(C(C)C)c4c3)n2)c([2H])c([2H])c1CN1CCN(C([2H])([2H])C([2H])([2H])[2H])CC1
44.2

Look up growth for this molecule: N#Cc1c(Oc2ccc([N+](=O)[O-])cc2)nc2sc3cc(Cl)ccc3n2c1=N
76.7

Look up growth for this molecule: CCn1c(Sc2nnc(NC(=O)CCN3CCCC3)s2)nc2c1c(=O)n(C)c(=O)n2C
103

Look up growth for this molecule: CN1CCC(=C2c3ccccc3C=Cc3ccccc32)CC1
64.9

Look up growth for this molecule: Oc1ccccc1-c1nc2ccccn2c1NCCN1CCOCC1
87.4

Look up growth for this molecule: N#C/C(=C\c1ccc2c(c1)OCO2)n1nnc2ccccc21
12.5

Look up growth for this molecule: CCCCOc1ccc(NC(=O)n2nc(N=NN(C)C)c3ccc(Cl)cc32)cc1
88.5

Look up growth for this molecule: COc1ccc(C2CC(c3ccccc3)=NN2c2nc(C)c(C(C)=O)s2)cc1 (stereo not drawn)
97

Look up growth for this molecule: CCn1nc(C#Cc2c(C)ccc3c(Nc4ccc(Cl)cc4)nccc23)c2c(N)ncnc21
18.9

Look up growth for this molecule: C[C@@H]1CC[C@@H]2[C@@H]1[C@H](OC(=O)/C=C/c1ccccc1)[C@]1(CCCOCCOCCOCCOC(=O)CCCC[C@@H]3SC[C@@H]4NC(=O)N[C@@H]43)C[C@@H](OC(=O)CO)[C@@]2(C)O1
97.7

Look up growth for this molecule: CCC(O)(C(c1ccccc1)c1ccccn1)C(c1ccccc1)c1ccccn1 (stereo not drawn)
97.4

Look up growth for this molecule: CCNCCNc1cc(-c2ccc(C(F)(F)F)cc2)c(C#N)c2nc3cc(Cl)c(Cl)cc3n12
-88.4

Look up growth for this molecule: O=C1Nc2ccc(Cl)cc2/C1=N/N=C/c1c[nH]c2ccccc12
93.8

Look up growth for this molecule: CCOC(=O)c1ccc(-c2ccc3cc(OC)ccc3c2)nc1C
100

Look up growth for this molecule: Cl.Fc1c[c-]c(-c2ccccn2)c(F)c1.[Pt].c1ccc(P(c2ccccc2)C([PH+](c2ccccc2)c2ccccc2)[PH+](c2ccccc2)c2ccccc2)cc1
7.49

Look up growth for this molecule: CC[C@]1(O)C[C@H]2CN(CCc3c([nH]c4ccccc34)[C@@](C(=O)OC)(c3cc4c(cc3OC)N(C=O)[C@H]3[C@@](O)(C(=O)OC)[C@H](OC(C)=O)[C@]5(CC)C=CCN6CC[C@]43[C@@H]65)C2)C1
18.3

Look up growth for this molecule: O=C1Nc2ccccc2SC1c1ccccc1Cl (stereo not drawn)
92.8

Look up growth for this molecule: CCOC(=O)c1c2c(c(C)n1C)-c1nn(Cc3ccc(OC)cc3)cc1CC2
66.3

Look up growth for this molecule: COc1ccc(/C(C)=C(\c2ccc(Cl)cc2)c2ccc(OCCN(C)C)cc2)cc1F
51.2

Look up growth for this molecule: CCCN1CCN(c2ccc3nc(-c4ccc5nc(-c6ccc(OCC)c(OCC)c6)[nH]c5c4)[nH]c3c2)CC1
-40.6

Look up growth for this molecule: CCCCCCN(CCCCCC)CC(O)c1cccc2ccc(Cl)cc12 (stereo not drawn)
37.1

Look up growth for this molecule: CNC(=O)c1c(NC(=O)c2ccc(C(C)(C)C)cc2)sc2c1CCC(=O)C2
-0.67

Look up growth for this molecule: O=C(O)C1C[C@](O)(c2ccc(F)cc2)[C@@H](c2ccc(F)cc2)O1 (stereo partly drawn)
85.9

Look up growth for this molecule: CC1(C)N=C(N)N=C(N)N1c1cccc(CN)c1
87.3

Look up growth for this molecule: CC(C)n1nc(C#Cc2cccc(NC(=O)c3cccc(C(F)(F)F)c3)c2)c2c(N)ncnc21
16.4

Look up growth for this molecule: CC(C)(C)c1ccc(C(=O)Nc2sc3c(c2C(N)=O)CCC(=O)C3)cc1
-5.7

Look up growth for this molecule: Cn1c(NCCc2ccc(O)c(O)c2)nc2c1c(=O)n(Cc1ccc(Cl)cc1)c(=O)n2C
60

Look up growth for this molecule: C=C1c2c(C)nn(-c3ccc(NC(C)=O)cc3)c2N(C)C23CC1C1(C)c4c(C)nn(-c5ccc(NC(C)=O)cc5)c4N(C)C(C)(CC12)C3 (stereo not drawn)
22.7

Look up growth for this molecule: CCCCCCCCc1cc[n+](CC(=O)c2ccc(Br)cc2)cc1
10.2

Look up growth for this molecule: Cc1nc(C)c(-c2nn3c(-c4cccc(F)c4)nnc3s2)s1
89.3

Look up growth for this molecule: CC(C)OC(=O)NNC(=O)c1ccncc1
104

Look up growth for this molecule: COc1cc2c(cc1OC)-c1ccc3cc4c(cc3c1N(CCN1CCCC1)C2)OCO4
2.3
